experiment: qHTS assay to identify small molecule antagonists of the thyroid receptor (TR) signaling pathway - cell viability counter screen (AID 743064); details: GH3.TRE-Luc viability, CellTiter-Fluor, 24 h; series mostly up to 70.3 µM; also: nearly all actives have a fitted effect of over 50% in size
Results filed as inconclusive are left out. Activity calls are given as the source filed them. Calls follow the shape of the dose curve; as a rule, active = well fitted cell-killing curve with a large enough effect in the repeat runs; inconclusive = weak or mixed curves, or effect the other way; inactive = no such curve, though single readings can be large or run the other way.
Classes used: T = active, F = inactive

[
  {
    "COMPOUND": "CCCCCCBr",
    "CAT": "F"
  },
  {
    "COMPOUND": "O=C(Nc1ccccc1)c1ccccc1I",
    "CAT": "F"
  },
  {
    "COMPOUND": "Nc1cc(Cl)ccc1O",
    "CAT": "T"
  },
  {
    "COMPOUND": "OCCBr",
    "CAT": "F"
  },
  {
    "COMPOUND": "COc1cc(OC)nc(Sc2cccc(Cl)c2C(=O)O)n1",
    "CAT": "F"
  },
  {
    "COMPOUND": "CCOP(=S)(OCC)Oc1cc(-c2ccccc2)on1",
    "CAT": "F"
  },
  {
    "COMPOUND": "CCN(CC)C(=O)[C@@H]1C=C2c3cccc4[nH]cc(c34)C[C@H]2N(C)C1",
    "CAT": "F"
  },
  {
    "COMPOUND": "CCCSP(=S)(OCC)Oc1ccc(Cl)cc1Cl (centres undefined)",
    "CAT": "F"
  },
  {
    "COMPOUND": "COC(C)(C)C",
    "CAT": "F"
  },
  {
    "COMPOUND": "C1CCC(C2CCCCC2)CC1",
    "CAT": "F"
  },
  {
    "COMPOUND": "CCOC(=O)CP(=O)(OCC)OCC",
    "CAT": "F"
  },
  {
    "COMPOUND": "O=NN1CCN(N=O)CC1",
    "CAT": "F"
  },
  {
    "COMPOUND": "O=C1OC(c2ccc(O)c(S(=O)(=O)O)c2)(c2ccc(O)c(S(=O)(=O)O)c2)c2c(Br)c(Br)c(Br)c(Br)c21",
    "CAT": "F"
  },
  {
    "COMPOUND": "COc1cc(OC)nc(NC(=O)NS(=O)(=O)c2ncccc2C(=O)N(C)C)n1",
    "CAT": "F"
  }
]

----------
Experiment: qHTS assay to identify small molecule agonists of the farnesoid-X-receptor (FXR) signaling pathway - cell viability counter screen (AID 743218); also: nearly all actives have a fitted effect of over 45% in size
Conditions: FXR-bla HEK293T viability, CellTiter-Glo luminescence, 16 h; series mostly up to 62.6 µM
Text: U.S. Tox21 Program National Center for Advancing Translational Sciences [NCATS] NIH Chemical Genomics Center [NCGC] U.S. Environmental Protection Agency [EPA] National Institutes of Environmental Health Sciences [NIEHS] National Toxicology Program [NTP] U.S. Food and Drug Administration [FDA] Tox21 Assay Overview: The farnesoid-X-receptor (FXR), a nuclear hormone receptor, is highly expressed in liver, intestine, kidney and adrenal cortex. […]
Records with an inconclusive call do not appear. The source made the active and inactive calls. The call rests on the fitted dose curve; in most records, active means well fitted cell-killing curve with a large enough effect in the repeat runs; inconclusive means weak or mixed curves, or effect the other way; inactive means no such curve, though single readings can be large or run the other way.
Classes used: active, inactive

[
  {
    "COMPOUND": "c1ccc(N2CCNCC2)cc1",
    "CAT": "inactive"
  },
  {
    "COMPOUND": "CNC(=O)N(C)c1nc2ccccc2s1",
    "CAT": "inactive"
  },
  {
    "COMPOUND": "CCCCCCI",
    "CAT": "inactive"
  },
  {
    "COMPOUND": "O=C(N[C@H]1CN2CCC1CC2)c1cc2ccoc2cn1",
    "CAT": "inactive"
  },
  {
    "COMPOUND": "CCCSC(=O)Cl",
    "CAT": "inactive"
  },
  {
    "COMPOUND": "CC(Cl)(Cl)[N+](=O)[O-]",
    "CAT": "inactive"
  },
  {
    "COMPOUND": "COc1cc(C[C@@H](C)N)c(OC)cc1C",
    "CAT": "inactive"
  },
  {
    "COMPOUND": "CNC(=O)Oc1ccccc1C1OCCO1",
    "CAT": "inactive"
  },
  {
    "COMPOUND": "C[C@]12CC[C@H]3[C@@H](CC=C4C[C@@H](O)CC[C@@]43C)[C@@H]1CC[C@@H]2O",
    "CAT": "inactive"
  },
  {
    "COMPOUND": "ClCC(Cl)Cl",
    "CAT": "inactive"
  },
  {
    "COMPOUND": "CNC(=O)Oc1ccc(N(C)C)c(C)c1",
    "CAT": "inactive"
  },
  {
    "COMPOUND": "OCCBr",
    "CAT": "inactive"
  },
  {
    "COMPOUND": "CCNc1nc(NC(C)C)nc(OC)n1",
    "CAT": "inactive"
  },
  {
    "COMPOUND": "C=CC1CC=CCC1 (centres undefined)",
    "CAT": "inactive"
  },
  {
    "COMPOUND": "C[C@H]1CCC[C@H](O)CCCCCc2cc(O)cc(O)c2C(=O)O1",
    "CAT": "inactive"
  },
  {
    "COMPOUND": "Cc1ncc2n1-c1ccc(Cl)cc1C(c1ccccc1F)=NC2",
    "CAT": "inactive"
  },
  {
    "COMPOUND": "Cc1nc(N)nc(N)n1",
    "CAT": "inactive"
  },
  {
    "COMPOUND": "Cc1nnc2n1-c1sc(CCC(=O)N3CCOCC3)cc1C(c1ccccc1Cl)=NC2",
    "CAT": "inactive"
  },
  {
    "COMPOUND": "CCC/C(=N\\OCC)C1=C(O)CC(CC(C)SCC)CC1=O (centres undefined)",
    "CAT": "inactive"
  },
  {
    "COMPOUND": "N#CCCC#N",
    "CAT": "inactive"
  },
  {
    "COMPOUND": "CCOC(=O)C1(c2ccccc2)CCN(CCc2ccc(N)cc2)CC1",
    "CAT": "inactive"
  },
  {
    "COMPOUND": "CC(C)(C)NCC(O)c1cc(Cl)c(N)c(Cl)c1 (centres undefined)",
    "CAT": "inactive"
  },
  {
    "COMPOUND": "Oc1c(Cl)cccc1Cl",
    "CAT": "inactive"
  },
  {
    "COMPOUND": "O=C(O)C(Br)CBr (centres undefined)",
    "CAT": "inactive"
  },
  {
    "COMPOUND": "CCOP(=O)(OCC)OP(=O)(OCC)OCC",
    "CAT": "inactive"
  },
  {
    "COMPOUND": "CCOc1nc(C(Cl)(Cl)Cl)ns1",
    "CAT": "inactive"
  },
  {
    "COMPOUND": "COc1cc(OC)nc(Sc2cccc(Cl)c2C(=O)O)n1",
    "CAT": "inactive"
  },
  {
    "COMPOUND": "O=C(Cc1ccccc1)OCc1ccccc1",
    "CAT": "inactive"
  },
  {
    "COMPOUND": "CN1CCC(O)(c2ccc(F)cc2)C(C(=O)c2ccc(F)cc2)C1 (centres undefined)",
    "CAT": "inactive"
  },
  {
    "COMPOUND": "CC1=C(C(=O)O)N2C(=O)[C@@H](N)[C@H]2SC1",
    "CAT": "inactive"
  },
  {
    "COMPOUND": "CCCCP(CCCC)CCCC",
    "CAT": "inactive"
  },
  {
    "COMPOUND": "C#CCN1C(=O)COc2cc(F)c(N3C(=O)C4=C(CCCC4)C3=O)cc21",
    "CAT": "inactive"
  },
  {
    "COMPOUND": "c1cc2c(c(N3CCNCC3)c1)OCCO2",
    "CAT": "inactive"
  },
  {
    "COMPOUND": "CN1CCN(C(=O)O[C@H]2c3nccnc3C(=O)N2c2ccc(Cl)cn2)CC1",
    "CAT": "inactive"
  },
  {
    "COMPOUND": "CC(CCc1ccccc1)NC(C)C(O)c1ccc(O)cc1 (centres undefined)",
    "CAT": "inactive"
  },
  {
    "COMPOUND": "CCCCOP(=O)(O)OCCCC",
    "CAT": "inactive"
  },
  {
    "COMPOUND": "CCCCc1ccc(O)cc1",
    "CAT": "inactive"
  },
  {
    "COMPOUND": "CCC1(c2ccccc2)C(=O)N=C(O)NC1=O (centres undefined)",
    "CAT": "inactive"
  },
  {
    "COMPOUND": "COc1cc2c(cc1OC)[C@@]13CCN4CC5=CCO[C@H]6CC(=O)N2[C@H]1[C@H]6[C@H]5C[C@H]43",
    "CAT": "inactive"
  },
  {
    "COMPOUND": "CC(C)(C)C(=O)C(Oc1ccc(Cl)cc1)n1cncn1 (centres undefined)",
    "CAT": "inactive"
  },
  {
    "COMPOUND": "CC1(C)C(=O)NC(=O)NC1=O",
    "CAT": "inactive"
  },
  {
    "COMPOUND": "CNNC",
    "CAT": "inactive"
  },
  {
    "COMPOUND": "CC(Oc1ccc(Oc2ncc(C(F)(F)F)cc2Cl)cc1)C(=O)O (centres undefined)",
    "CAT": "active"
  },
  {
    "COMPOUND": "N#CCNCC#N",
    "CAT": "inactive"
  },
  {
    "COMPOUND": "CCCCOC(=O)c1ccccc1C(=O)O",
    "CAT": "inactive"
  },
  {
    "COMPOUND": "COC(=O)C1=CCCN(C)C1",
    "CAT": "inactive"
  },
  {
    "COMPOUND": "NC(=O)O",
    "CAT": "inactive"
  },
  {
    "COMPOUND": "NC1=NC(=O)C(c2ccccc2)O1 (centres undefined)",
    "CAT": "inactive"
  },
  {
    "COMPOUND": "CC1CN1P(=O)(N1CC1C)N1CC1C (centres undefined)",
    "CAT": "inactive"
  },
  {
    "COMPOUND": "CCC#N",
    "CAT": "inactive"
  },
  {
    "COMPOUND": "CC(C)CC#N",
    "CAT": "inactive"
  },
  {
    "COMPOUND": "O=[N+]([O-])c1cccc2c([N+](=O)[O-])cccc12",
    "CAT": "inactive"
  },
  {
    "COMPOUND": "CSc1ccc(C(=O)C(C)(C)N2CCOCC2)cc1",
    "CAT": "inactive"
  },
  {
    "COMPOUND": "CCC(=O)c1ccccc1",
    "CAT": "inactive"
  },
  {
    "COMPOUND": "CCCCc1c(C)nc(NCC)[nH]c1=O",
    "CAT": "inactive"
  },
  {
    "COMPOUND": "CCOP(=S)(OCC)Oc1nc(Cl)n(C(C)C)n1",
    "CAT": "inactive"
  },
  {
    "COMPOUND": "CCCCC(=O)Cl",
    "CAT": "inactive"
  },
  {
    "COMPOUND": "CNC(=O)Oc1c(C(C)(C)C)cc(C)cc1C(C)(C)C",
    "CAT": "inactive"
  },
  {
    "COMPOUND": "Nc1cnn(-c2ccccc2)c(=O)c1Cl",
    "CAT": "inactive"
  }
]
